The reported numbers originate from patent US8771641B2.

Assay: Metabolism assay: intact test compound in rat brain by HPLC
Format: in vivo, Wistar rats
Conditions: 60 minutes post-injection
readout-kind: percentage of radioactivity in the brain representing intact test compound (%)
Return type: number; implicit unit %.

Lookup: Give the measured percentage of radioactivity in the brain representing intact test compound of O=C(C[18F])N(Cc1cccc2c1OCC2)c1ccccc1Oc1ccccc1 [in vivo imaging agent 1] .
Found: 93

Lookup: Give the measured percentage of radioactivity in the brain representing intact test compound of O=C(C[18F])N(Cc1cccc2c1OCCO2)c1ccccc1Oc1ccccc1 [in vivo imaging agent 3] .
Found: 82

Lookup: Give the measured percentage of radioactivity in the brain representing intact test compound of O=C(C[18F])N(Cc1cccc2c1OCO2)c1ccccc1Oc1ccccc1 [in vivo imaging agent 2] .
Found: 92

Lookup: Give the measured percentage of radioactivity in the brain representing intact test compound of COc1ccc(OC)c(CN(C(=O)C[18F])c2ccccc2Oc2ccccc2)c1 [PBR06, reference compound] .
Found: 90
